System: NCI-H23 lung
Assay: NCI-60 one-dose screen, 48 h (100 = growth as untreated, 0 = no growth, -100 = all killed)
Conditions: 10 µM unless noted
The panel holds about 83,000 compounds, 20% with a hit somewhere; the sample as a whole holds those more often.
The following compounds are listed with their measured growth values.
Lab book: enter the figure in %, no units written.

Nc1ccc(S(=O)(=O)Nc2cc(I)cc(I)c2)cc1    93.6
CC(=O)N1N=C2N(Cc3ccccc3)C(=O)c3c(sc4c3CCCC4)N2C1c1cn(-c2ccccc2)nc1-c1ccc(Cl)cc1 (stereo not given)    88.6
CC(=O)c1cc2c(N)c(C(=O)Nc3cccc(Cl)c3)sc2nc1C    91
O=C1c2ccccc2OC=C(c2ccccc2)N1CCCCNc1ccc(F)cc1    90.1
CCOc1cccc(Nc2nc(N)nc3[nH]c4ccc(O)cc4c23)c1    68.5
Cc1cc(O[C@@H]2O[C@@H](C)[C@H](O)[C@@H](O)[C@H]2O)c2c3c(c(O[C@@H]4O[C@@H](C)[C@H](O)[C@@H](O)[C@H]4O)cc2c1)C(=O)c1c(O)cccc1C3=O    95.4
O=[N+]([O-])c1ccc(NS(=O)(=O)c2cc(Cl)ccc2Cl)c2ccccc12    32.5
CCOc1ccccc1C(=O)N1CCN(c2cc(Cl)cc(Cl)c2)CC1    24.3

Lab note: next compound to report on.
Q: Let me know recorded growth for `Nc1nccc(=S)[nH]1` , thanks.
A: 92.7

====

Tested on: COLO 205 colon
Experiment: NCI-60 one-dose screen, 48 h (100 = growth as untreated, 0 = no growth, -100 = all killed)
Details: 10 µM unless noted
Compounds without any hit were thinned out: in the full panel of roughly 83,000, 20% have a hit.
Sorting guide: entries reporting growth beneath 90% go in the t pile, the rest go in the f pile.

See these solved cases before continuing.
Cc1ccc(/C=C2/C(=O)Nc3cc(Cl)c(-c4csc(N)n4)cc32)cc1    t
Cc1ccc2[nH]c3nc4cccnc4c(C)c3c2c1    f

Q: In the record for `Clc1ccc2c(NCCNc3nc(Cl)nc4ccccc34)ccnc2c1` , is growth less than 90%?
A: t

====

Tested on: UACC-62 melanoma
Test: NCI-60 one-dose screen, 48 h (100 = growth as untreated, 0 = no growth, -100 = all killed)
Conditions: 10 µM unless noted
The panel holds about 83,000 compounds, 20% with a hit somewhere; the sample as a whole holds those more often. Calls of active or inactive are those of the source. The calls were made as follows: active = growth percent below 10; inactive = the rest.
The following compounds are listed with their measured growth values.

Would you please look over these solved cases?
COc1ccccc1N1CCN(CC(O)COc2c(Br)c(Br)c(Br)c3c2OC(C)(C)C3)CC1 (centres undefined)    56.6% (inactive)
COc1ccc(/C=C2\CS(=O)(=O)C/C(=C\c3ccc(OC)cc3)C2=O)cc1    -64.1% (active)
COc1cc(NC(C)CCCN2C(=O)c3ccccc3C2=O)c2nccc(C)c2c1OC (centres undefined)    84% (inactive)
O=C(CSc1nnc(-c2cc3c([nH]c4ccccc43)c(-c3cccc(O)c3)n2)n1-c1ccccc1)c1ccccc1    69.8% (inactive)

Q: Let me know recorded growth for `CCN(CC)CCNc1ccc([N+](=O)[O-])c2sc3cc(Cl)ccc3c(=O)c12` , thanks.
A: 30.9% (inactive)

Q: Let me know recorded growth for `COc1cc(Br)c(-c2nc(-c3ccccc3)c(-c3ccccc3)n2Cc2ccccc2)cc1OC` , thanks.
A: 53.1% (inactive)

Q: Let me know recorded growth for `Cc1ccc(/C=C2/C(=O)Nc3cc(Cl)c(-c4csc(N)n4)cc32)cc1` , thanks.
A: 50.7% (inactive)

Q: Let me know recorded growth for `O=C(NCCNc1nccc(-c2c(-c3cccc(O)c3)nc3sccn23)n1)Nc1cccc(C(F)(F)F)c1` , thanks.
A: 29.4% (inactive)

Q: Let me know recorded growth for `O=C1c2ccccc2OC=C(c2ccccc2)N1CCCCN1CCCCC1` , thanks.
A: 69.1% (inactive)

Q: Let me know recorded growth for `COc1ccc(Cl)cc1NC(=O)c1cc2c([nH]1)-c1nc(NC(=O)C(C)(C)C)sc1CC2` , thanks.
A: 81.2% (inactive)

Q: Let me know recorded growth for O=C(COc1ccc(Cl)cc1Cl)N1N=C(c2ccc(Cl)cc2Cl)CC1(O)c1cc(F)c(Cl)cc1Cl (centres undefined) , thanks.
A: 156% (inactive)
